# Tested on: Mythimna separata
# protocol summary: Insecticidal activity against Mythimna separata at 500 mg/L relative to control
# Format: functional
Some compounds, each annotated with its measured Activity.
outcome measure: Activity (%)

1. CC(C)(C)N(NC(=O)c1ccccc1)C(=O)c1coc2ccc(Cl)cc2c1=O 58.3
2. Cc1ccc2occ(C(=O)N(NC(=O)c3ccccc3)C(C)(C)C)c(=O)c2c1 60
3. Cc1ccccc1C(=O)N(NC(=O)c1ccc2c(c1)C(=O)CC(C)(C)O2)C(C)(C)C 40
4. CC1(C)CC(=O)c2cc(C(=O)NN(C(=O)c3ccccc3Cl)C(C)(C)C)ccc2O1 66.7
5. CC(C)(C)N(NC(=O)c1ccccc1)C(=O)c1coc2ccccc2c1=O 0
6. Cc1ccc2occ(C(=O)N(NC(=O)c3cccc(Cl)c3)C(C)(C)C)c(=O)c2c1 26.7
7. CC(C)(C)N(NC(=O)c1ccc(Cl)cc1)C(=O)c1coc2ccccc2c1=O 66.7
8. CC1(C)CC(=O)c2cc(C(=O)NN(C(=O)c3cccc(Cl)c3)C(C)(C)C)ccc2O1 13.3
9. Cc1cccc(C(=O)NN(C(=O)c2coc3ccc(Cl)cc3c2=O)C(C)(C)C)c1 26.7

----------
# Test system: Mythimna separata
# protocol summary: Insecticidal activity against Mythimna separata at 500 mg/L relative to control
# Assay type: functional
outcome measure: Activity (%)

1. CC1(C)CC(=O)c2cc(C(=O)NN(C(=O)c3ccc(Cl)cc3)C(C)(C)C)ccc2O1 84.2
2. CC1(C)CC(=O)c2cc(C(=O)NN(C(=O)c3ccc(Br)cc3)C(C)(C)C)ccc2O1 6.7
3. CC1(C)CC(=O)c2cc(C(=O)NN(C(=O)c3ccccc3F)C(C)(C)C)ccc2O1 0
4. CC1(C)CC(=O)c2cc(C(=O)NN(C(=O)c3ccccc3)C(C)(C)C)ccc2O1 80
5. CC(C)(C)N(NC(=O)c1cccc(Cl)c1)C(=O)c1coc2ccc(Cl)cc2c1=O 73.3
6. CC(C)(C)N(NC(=O)c1cccc(Cl)c1)C(=O)c1coc2ccccc2c1=O 20
7. Cc1cc(C)cc(C(=O)N(NC(=O)c2ccc3c(c2)C(=O)CC(C)(C)O3)C(C)(C)C)c1 100
8. CC1(C)CC(=O)c2cc(C(=O)NN(C(=O)c3ccc(F)cc3)C(C)(C)C)ccc2O1 0

From: ChEMBL document CHEMBL1142909
